molecular target: BTK (Homo sapiens); experiment: biochemical; conditions: read-out: BTK inhibition (%), 0.75 uM BTK, […] probe 3l, 15 min preincubation
Sequence (Q06187 402-655 limits assumed): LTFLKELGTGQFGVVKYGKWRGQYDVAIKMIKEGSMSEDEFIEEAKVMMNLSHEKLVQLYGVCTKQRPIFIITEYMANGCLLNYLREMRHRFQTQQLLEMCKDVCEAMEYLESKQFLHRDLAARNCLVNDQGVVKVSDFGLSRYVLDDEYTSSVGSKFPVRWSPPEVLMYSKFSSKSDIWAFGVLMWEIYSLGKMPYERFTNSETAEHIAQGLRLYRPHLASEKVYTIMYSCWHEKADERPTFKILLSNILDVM
Measured Attribute: inhibition at 10 µM (%)
Give just the number in %; leave the unit off.

Observe how each entry below is paired with its result.
COc1cc2ncnc(Oc3cccc(NC(=O)Nc4cc(C(C)(C)C(F)(F)F)on4)c3)c2cc1OC = 4.1
N=C(N=C(N)N)N1CCOCC1 = -3.1
O=C(Nc1ccc(O)cc1)c1ccccc1O = -10.9
COc1cc(CCC(=O)CC(=O)CCc2ccc(O)c(OC)c2)ccc1O = -7

Proceeding to the next compound to report its inhibition at 10 µM.
// inhibition at 10 µM lookup, compound = CC1=C(C(=O)Nc2ccc3[nH]ncc3c2)C(c2ccc(F)cc2)NC(=O)N1 (centres unmarked) , result: 19.3
